TEST SYSTEM: human GLP-1 receptor (human, UniProt P43220)
ASSAY TEXT: cell-based or functional assay
Starred links: 1 amine or outer side, 2 acyl side, 3 side chain; linkers in the order of their positions; H or OH if unused. Non-standard residues stand in square brackets, D forms with d. Groups on a side chain read outwards from the residue. No end group written: not given here. *: point of attachment. C18 diacid = O=C(O)CCCCCCCCCCCCCCCCC(=O)*; γGlu = O=C(O)[C@H](CCC(=O)[*:2])N[*:1]; αMeF = C[C@](N)(Cc1ccccc1)C(=O)O; AEEA = NCCOCCOCC(=O)O; Aib = CC(C)(N)C(=O)O
OBSERVED PROPERTY: hGLP-1R EC50 (pM)
Answer in pM, number only, no unit symbol.

**Q:** # lookup: hGLP-1R EC50 (pM) of H[dS]QGS[αMeF]TSDVSK[αMeF]LDSRAAK([AEEA-AEEA-γGlu-C18 diacid])D[αMeF]VQ[Aib]IANT [Peptide 331]
**A:** 62.6

**Q:** For H[Aib]QGTFTSDVSK[αMeF]LDSRAAK([AEEA-AEEA-γGlu-C18 diacid])DFVQ[Aib]LVAT-NH2 (not fully specified) [Peptide 315] then?
**A:** 18.1

**Q:** For H[Aib]QGTFTSDVSK[αMeF]LDSRAAK([AEEA-AEEA-γGlu-C18 diacid])DFVQWIANT-NH2 (not fully specified) [Peptide 318] then?
**A:** 55.2

**Q:** For H[Aib]HGS[αMeF]TSDVSK[αMeF]LDSRAAK([AEEA-AEEA-γGlu-C18 diacid])D[αMeF]VQ[Aib]IANT-NH2 [Peptide 284] then?
**A:** 43.4
